Molecular target: UniProt O43175
Sequence (O43175 whole entry): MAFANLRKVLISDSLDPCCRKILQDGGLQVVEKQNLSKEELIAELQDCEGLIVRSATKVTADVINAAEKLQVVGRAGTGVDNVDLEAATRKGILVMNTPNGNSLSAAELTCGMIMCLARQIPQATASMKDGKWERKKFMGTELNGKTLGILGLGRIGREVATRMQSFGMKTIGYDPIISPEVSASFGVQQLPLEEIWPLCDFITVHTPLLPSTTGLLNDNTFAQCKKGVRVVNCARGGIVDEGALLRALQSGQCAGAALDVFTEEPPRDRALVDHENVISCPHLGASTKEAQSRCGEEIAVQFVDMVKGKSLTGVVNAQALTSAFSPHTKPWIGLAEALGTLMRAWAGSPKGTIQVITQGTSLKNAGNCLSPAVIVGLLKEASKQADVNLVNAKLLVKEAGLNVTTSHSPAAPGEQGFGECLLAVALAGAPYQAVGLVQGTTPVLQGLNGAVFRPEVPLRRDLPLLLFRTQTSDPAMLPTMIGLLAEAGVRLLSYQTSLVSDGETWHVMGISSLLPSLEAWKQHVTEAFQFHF
Test: Inhibition of N-terminal His6-tagged human PHGDH (4 to 315 residues) assessed as effect on NADH fluorescence incubated for 2 hrs using 3-PG substrate in presence of 250 uM NAD+ and PSAT1 by diaphorase based luminescence assay
Would you kindly list pIC50 for each of these compounds?
Scale note: pIC50 = -log10(concentration in M).

## Input Field request: pIC50 | item: C[C@@H](NC(=O)c1cc2c3ccccc3ccc2n1C)c1ccc(C(=O)O)cc1
## Output 6.46

## Input Field request: pIC50 | item: C[C@@H](NC(=O)c1cc2cc(Cl)cc(OC(F)(F)F)c2n1C)c1ccc(C(=O)O)cc1
## Output 5.17

## Input Field request: pIC50 | item: Cc1cc2c(cc(C(=O)N[C@H](C)c3ccc(C(=O)O)cc3)n2C)c(Cl)c1Cl
## Output 7.02
